// provenance: patent US9643964B2

Tested on: L-363 cells
Experiment: Biological Assay C: antiproliferative activity on L-363 cells (CellTiter-Glo)
Format: cell-based, human
Conditions: Homo sapiens, L-363, 72 h, 72 hr treatment; averaged values
Each entry below carries its reported log10 EC50.
Friendly reminder: values = log10 of EC50, unit µM.

Example cases with answers are listed next.
Compound | log10 EC50
COCCn1cc(-c2nc(N)ncc2C#N)c2cc(C#CC(C)(C)O)ncc21 | -0.54
CC(O)(C#Cc1cc2c(-c3nc(N)ncc3F)cn(C3CN(C4CC4)C3)c2cn1)C1CC1 (single isomer, unassigned) [Compound 157] | -0.85
CC(C)(O)C#Cc1cc2c(-c3nc(N)ncc3C#N)cn(CC(C)(C)O)c2cn1 | -0.82
CC(C)n1cc(-c2nc(N)ncc2F)c2cc(C#CC3(O)CCN(C)C3=O)ncc21 (centres unmarked) | 0.18
Nc1ncc(F)c(-c2cn(C3COC3)c3c(C4CC4)nc(C#CC4(O)CCCC4)cc23)n1 | -0.70

Request: Which log10 EC50 reading was recorded for the compound COCCN1CC(n2cc(-c3nc(N)ncc3F)c3cc(C#CC(C)(O)C4CC4)ncc32)C1 (centres unmarked) ?
Response: -0.42

Request: Which log10 EC50 reading was recorded for the compound CC(O)(C#Cc1cc2c(-c3nc(N)ncc3F)cn(C3CN(C4CC4)C3)c2cn1)CF (centres unmarked) ?
Response: -0.96

Request: Which log10 EC50 reading was recorded for the compound `CC(C)(O)C#Cc1cc2c(-c3nc(N)ncc3C(F)(F)F)cn(CC(C)(C)O)c2cn1` ?
Response: -0.72

====

Molecular target: Recombinant Human NF-kappaB-Inducing Kinase (NIK/MAP3K14) (Homo sapiens)
Sequence (Q99558 whole entry): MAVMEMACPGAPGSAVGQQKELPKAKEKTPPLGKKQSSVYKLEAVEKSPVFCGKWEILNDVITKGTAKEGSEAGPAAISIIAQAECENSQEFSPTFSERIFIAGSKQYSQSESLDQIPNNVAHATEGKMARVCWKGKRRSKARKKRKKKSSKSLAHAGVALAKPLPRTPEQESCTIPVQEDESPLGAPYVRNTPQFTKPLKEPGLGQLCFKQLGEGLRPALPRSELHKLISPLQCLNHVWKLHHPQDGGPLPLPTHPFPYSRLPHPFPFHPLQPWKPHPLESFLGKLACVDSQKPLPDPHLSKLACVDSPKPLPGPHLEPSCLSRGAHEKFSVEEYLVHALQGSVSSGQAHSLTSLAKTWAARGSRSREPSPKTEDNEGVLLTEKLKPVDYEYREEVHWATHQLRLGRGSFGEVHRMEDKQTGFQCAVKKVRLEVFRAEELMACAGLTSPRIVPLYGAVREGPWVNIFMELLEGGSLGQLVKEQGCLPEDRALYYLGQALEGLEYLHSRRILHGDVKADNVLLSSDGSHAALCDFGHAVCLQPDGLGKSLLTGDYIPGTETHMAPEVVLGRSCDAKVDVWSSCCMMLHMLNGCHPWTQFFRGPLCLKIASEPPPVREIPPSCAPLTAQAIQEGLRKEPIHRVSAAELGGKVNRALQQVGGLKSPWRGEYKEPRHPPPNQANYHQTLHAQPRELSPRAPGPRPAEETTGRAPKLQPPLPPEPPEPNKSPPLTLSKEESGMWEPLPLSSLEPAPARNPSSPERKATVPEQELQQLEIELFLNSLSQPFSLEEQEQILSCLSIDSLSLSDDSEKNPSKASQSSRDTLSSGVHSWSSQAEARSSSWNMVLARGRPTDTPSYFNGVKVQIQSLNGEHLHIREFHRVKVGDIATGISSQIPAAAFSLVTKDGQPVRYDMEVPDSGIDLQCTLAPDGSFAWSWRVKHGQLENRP
Assay: Biological Assay A2: inhibition of auto-phosphorylation of recombinant human NIK/MAP3K14 (AlphaScreen)
Assay type: biochemical
Conditions: auto-phosphorylation; averaged over all measurements on all batches; read-out: αscreen IC50
Protocol: Inhibition of Auto-Phosphorylation of Recombinant Human NF-kappaB-Inducing Kinase (NIK/MAP3K14) Activity (AlphaScreen®) NIK/MAP3K14 auto-phosphorylation activity was measured using the AlphaScreen® (αscreen) format (Perkin Elmer). All compounds tested were dissolved in dimethyl sulfoxide (DMSO) and further dilutions were made in assay buffer. […] Protein A Acceptor and Glutathione-Donor beads were added before reading using an EnVision® Multilabel Plate Reader (Perkin Elmer). […]
Each entry below carries its reported IC50.
Reply with just the number (in µM).

Molecule | Units label | IC50
COCCCn1cc(-c2nc(N)ncc2F)c2cc(C#CC(C)(C)O)nc(Cl)c21 [Compound 92] | µM | 0.047
COCCCN1CC(n2cc(-c3nc(N)ncc3F)c3cc(C#CC(C)(O)C4CC4)ncc32)C1 (centres unmarked) [Compound 156] | µM | 0.19
CCN1CCOC(Cn2cc(-c3nc(N)ncc3F)c3cc(C#CC(C)(O)C4CC4)ncc32)C1 (centres unmarked) [Compound 127] | µM | 0.18
CC(O)(C#Cc1cc2c(-c3nc(N)ncc3F)cn(C3CN(CC4CC4)C3)c2cn1)C1CC1 (centres unmarked) [Compound 140] | µM | 0.1
CN1CC(n2cc(-c3nc(N)ncc3F)c3cc(C#CC(C)(O)C4CC4)ncc32)C1 (centres unmarked) [Compound 135] | µM | 0.068
CC(C)n1cc(-c2nc(N)ncc2CCCN)c2cc(C#CC(C)(C)O)ncc21 [Compound 118] | µM | 0.74
COc1cnc(N)nc1-c1cn(C(C)C)c2cnc(C#CC(C)(O)C3CC3)cc12 (centres unmarked) [Compound 149] | µM | 0.022

Okay, next one:
Request: Which IC50 reading was recorded for the molecule CC(O)(C#Cc1cc2c(-c3nc(N)ncc3F)cn(C3CCN(CCF)C3)c2cn1)C1CC1 (centres unmarked) [Compound 153] ?
Response: 0.074
